measurement target: aggregated tau protein (wild-type K18) (Homo sapiens, UniProt P10636)
Construct: Tau protein (wild-type K18)
Sequence (P10636 561-685 limits assumed): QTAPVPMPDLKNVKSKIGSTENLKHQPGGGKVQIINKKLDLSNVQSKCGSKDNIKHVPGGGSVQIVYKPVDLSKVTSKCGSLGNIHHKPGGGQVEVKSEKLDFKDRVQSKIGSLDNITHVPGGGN
test details: Tau protein aggregate degradation test (thioflavin T assay)
Type: biochemical
condition set: 50 uM test compound; pre-aggregated tau, further 5 days at 37° C.; ThT fluorescence vs control = 100%
For each record, write down the corresponding ThT fluorescence remaining (% of control).

Reading of ThT fluorescence remaining (% of control) for O=C1NC(=S)SC1Cc1ccoc1 (centres unmarked) [DN204305] with aggregated tau protein (wild-type K18) (Homo sapiens, UniProt P10636): 61.22 % of control

Reading of ThT fluorescence remaining (% of control) for CCN1C(=O)/C(=C/c2c[nH]c3cccnc23)NC1=S [DN204817] with aggregated tau protein (wild-type K18) (Homo sapiens, UniProt P10636): 49.84 % of control

Reading of ThT fluorescence remaining (% of control) for O=C1NC(=S)SC1Cc1c[nH]c2ncccc12 (centres unmarked) [DN204304] with aggregated tau protein (wild-type K18) (Homo sapiens, UniProt P10636): 67.53 % of control

Reading of ThT fluorescence remaining (% of control) for O=C1NC(=S)S/C1=C\c1ccc2occc2c1 [DN204809] with aggregated tau protein (wild-type K18) (Homo sapiens, UniProt P10636): 51.93 % of control

Reading of ThT fluorescence remaining (% of control) for O=C1NC(=S)SC1Cc1c[nH]c2ccccc12 (centres unmarked) [DN204301] with aggregated tau protein (wild-type K18) (Homo sapiens, UniProt P10636): 80.31 % of control

Reading of ThT fluorescence remaining (% of control) for CCN1C(=O)/C(=C/c2c[nH]c3ccncc23)SC1=S [DN205780] with aggregated tau protein (wild-type K18) (Homo sapiens, UniProt P10636): 27.50 % of control

Reading of ThT fluorescence remaining (% of control) for CCN1C(=O)/C(=C/c2c[nH]c3ncccc23)NC1=S [DN204816] with aggregated tau protein (wild-type K18) (Homo sapiens, UniProt P10636): 40.39 % of control

Reading of ThT fluorescence remaining (% of control) for O=C1NC(=S)S/C1=C\c1ccoc1 [DN204298] with aggregated tau protein (wild-type K18) (Homo sapiens, UniProt P10636): 61.36 % of control

Reading of ThT fluorescence remaining (% of control) for O=C1NC(=O)/C(=C/c2c[nH]c3cnccc23)S1 [DN204290] with aggregated tau protein (wild-type K18) (Homo sapiens, UniProt P10636): 54.41 % of control

Reading of ThT fluorescence remaining (% of control) for O=C1NC(=O)/C(=C/c2c[nH]c3cccnc23)S1 [DN204289] with aggregated tau protein (wild-type K18) (Homo sapiens, UniProt P10636): 57.57 % of control

Reading of ThT fluorescence remaining (% of control) for CCN1C(=O)C(Cc2ccc3occc3c2)NC1=S (centres unmarked) [DN205353] with aggregated tau protein (wild-type K18) (Homo sapiens, UniProt P10636): 66.25 % of control
